Provenance of the data: patent US20260132214A1

Assignment: determine reported EC50 for the given binders.
Measured target: T1, GPC3 expressed on the cell surface of HepG2, Huh7 and Hep3B cells (human, UniProt P51654 25-554)
T1 construct: Endogenous GPC3 of human liver tumour cell lines; also called Glypican 3 protein on the cell surface; endogenously expressed GPC3
T1 sequence (P51654 25-554 limits assumed): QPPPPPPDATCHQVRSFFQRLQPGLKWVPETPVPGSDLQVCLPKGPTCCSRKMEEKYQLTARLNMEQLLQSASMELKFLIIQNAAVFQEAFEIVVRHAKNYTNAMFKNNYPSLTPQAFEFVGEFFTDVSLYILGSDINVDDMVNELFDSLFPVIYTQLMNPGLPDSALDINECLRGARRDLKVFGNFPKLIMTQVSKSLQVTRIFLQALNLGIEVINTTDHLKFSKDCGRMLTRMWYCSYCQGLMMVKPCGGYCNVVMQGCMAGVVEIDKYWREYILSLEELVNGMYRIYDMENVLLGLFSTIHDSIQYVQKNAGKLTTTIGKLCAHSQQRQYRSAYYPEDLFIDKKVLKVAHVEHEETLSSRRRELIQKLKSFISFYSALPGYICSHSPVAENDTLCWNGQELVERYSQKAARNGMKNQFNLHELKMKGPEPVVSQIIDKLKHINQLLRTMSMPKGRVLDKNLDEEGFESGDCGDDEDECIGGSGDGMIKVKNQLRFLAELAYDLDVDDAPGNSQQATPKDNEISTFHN
Method notes: flow cytometry, Fab titrated on Hep3B cells

• P17-16E6 Fab (Fab, V domains shown, Fab format) VH: EVQLVESGGGLVQPGGSLRLSCAASGFTFRKYAMSWVRQAPGKGLEWVSSLSASGSATYYADSVKGRFTISRDNSKNTLYLQMNSLRAEDTAVYYCAKEADYSMGWMHYYYGMDVWGQGTTVTVSS VL: QSVLTQPPSVSGAPGQRVTISCTGSSSGYDVHWYQQLPGRAPKLLIYGSNNRPSGVPDRFSGSNSGTSASLAITGLQAEDEADYYCQSYDSSLNAIFGGGTKLTVL = 8.5 ng/mL

Return reported EC50 values for all items listed beneath this line.
1. P17-16A11 Fab (Fab, V domains shown, Fab format) VH: EVQLVESGGGLVQPGGSLRLSCAASGFTFDRYAMSWVRQAPGKGLEWVSSLSASGSGTYYADSVKGRFTISRDNSKNTLYLQMNSLRAEDTAVYYCAKEYDFSYGWMHYYYGMDVWGQGTTVTVSS VL: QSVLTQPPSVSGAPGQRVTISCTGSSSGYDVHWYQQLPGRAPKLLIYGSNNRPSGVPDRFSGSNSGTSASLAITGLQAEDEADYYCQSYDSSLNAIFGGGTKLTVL
2. P17-16A1 Fab (Fab, V domains shown, Fab format) VH: EVQLVESGGGLVQPGGSLRLSCAASGFTFKRYAMSWVRQAPGKGLEWVSSVSSSGTGTYYADSVKGRFTISRDNSKNTLYLQMNSLRAEDTAVYYCAKEYDYGLGWMHYYYGMDVWGQGTTVTVSS VL: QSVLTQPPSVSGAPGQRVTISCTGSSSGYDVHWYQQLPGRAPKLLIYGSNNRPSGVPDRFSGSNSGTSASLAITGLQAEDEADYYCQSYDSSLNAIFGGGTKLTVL
3. P17-15D5 Fab (Fab, V domains shown, Fab format) VH: EVQLVESGGGLVQPGGSLRLSCAASGFTFANYAMSWVRQAPGKGLEWVSDVSASGVGTYYADSVKGRFTISRDNSKNTLYLQMNSLRAEDTAVYYCAKEVDFKLGWMHYYYGMDVWGQGTTVTVSS VL: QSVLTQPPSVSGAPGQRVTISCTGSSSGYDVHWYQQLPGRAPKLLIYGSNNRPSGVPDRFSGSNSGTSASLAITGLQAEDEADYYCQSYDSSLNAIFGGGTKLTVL

[out]
1. 8.3 ng/mL
2. 7.4 ng/mL
3. 9.7 ng/mL
